Where these numbers come from: patent US12466781B2

Target: TRβ (Homo sapiens)
Construct: expressed in transfected cells; host or cells: HEK293
Test: Thyroid-hormone reporter-gene assay (TRβ-Gal4 hybrid, luciferase, HEK293)
Format: cell-based
Settings: reporter cells, 24 hr incubation; Table 2; read-out: TRβ (EC50)
pEC50: −log10 of the molar value.
Entries and their measured pEC50 follow.

CNC(=O)COc1cc(C)c(Cc2ccc(O)c(C(C)C)c2)c(Cl)c1F [Compound 143] ... 7.00 to 8.00
C=C(C)c1cc(OCC(=O)O)c(F)c(Cl)c1Cc1ccc(O)c(C(C)C)c1 [Compound 79] ... 7.00 to 8.00
Cc1cc(OCC(=O)O)c(F)c(C)c1Cc1ccc(O)c(C(C)C)c1F [Compound 93] ... 7.00 to 8.00
Cc1cc(OCC(=O)O)cc(Cl)c1Cc1ccc(O)c(C(C)C)c1F [Compound 36] ... 7.00 to 8.00
CC(C)c1cc(OCC(=O)O)cc(Cl)c1Cc1ccc(O)c(C(C)C)c1F [Compound 47] ... > 8.00
Cc1c(F)c(OCC(=O)O)cc(Cl)c1Cc1ccc(O)c(C(C)C)c1F [Compound 112] ... > 8.00

Q. # get_value(readout='pEC50', item= C=C(C)c1cc(OCC(=O)O)cc(C)c1Cc1ccc(O)c(C(C)C)c1F [Compound 12] )
A. > 8.00

Q. Cc1c(OCC(=O)O)cc(Cl)c(Cc2ccc(O)c(C(C)C)c2)c1Cl [Compound 91] , same question.
A. 7.00 to 8.00

----------
Target: TRβ (Homo sapiens, UniProt P10828)
Construct: expressed in transfected cells; host or cells: HEK293
Sequence (P10828 217-461 limits assumed): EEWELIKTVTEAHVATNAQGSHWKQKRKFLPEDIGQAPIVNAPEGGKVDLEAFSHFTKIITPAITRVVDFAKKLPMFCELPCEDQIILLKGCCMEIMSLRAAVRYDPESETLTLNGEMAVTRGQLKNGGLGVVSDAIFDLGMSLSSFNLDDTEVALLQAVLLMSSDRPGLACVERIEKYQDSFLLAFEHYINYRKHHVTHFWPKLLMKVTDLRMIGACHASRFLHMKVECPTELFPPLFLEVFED
Test: Thyroid-hormone reporter-gene assay (TRβ-Gal4 hybrid, luciferase, HEK293)
Type: cell-based
Settings: Table 3; read-out: EC50-TRβ
endpoint-name: EC50 (nM)
Could you give me the number in nM? Just the number is fine.

Q. # get_value(readout='EC50', item= CC(C)c1cc(Cc2c(Cl)cc(OCC(=O)O)cc2Cl)ccc1O [JD-21, reference compound] )
A. 79

----------
Molecular target: TRα (Homo sapiens)
Construct: expressed in transfected cells; host or cells: HEK293
Sequence (P10827 163-410 isoform P10827-2 limits assumed): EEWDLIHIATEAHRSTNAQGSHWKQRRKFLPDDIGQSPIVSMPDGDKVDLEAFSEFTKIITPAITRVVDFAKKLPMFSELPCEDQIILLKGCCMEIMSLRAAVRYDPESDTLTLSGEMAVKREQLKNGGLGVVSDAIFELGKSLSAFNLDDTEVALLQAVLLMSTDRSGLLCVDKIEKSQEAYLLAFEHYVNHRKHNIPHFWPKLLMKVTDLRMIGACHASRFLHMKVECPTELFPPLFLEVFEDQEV
Test: Thyroid-hormone reporter-gene assay (TRα-Gal4 hybrid, luciferase, HEK293)
Type: cell-based
Conditions: reporter cells, 24 hr incubation; Table 2; read-out: TRα (EC50)
endpoint-name: EC50

Some entries whose results are on file:
Cc1cc(OCC(=O)O)cc(C)c1Cc1ccc(O)c(C(C)C)c1F ... > 1000 nM
CC(C)c1cc(Cc2c(Cl)cc(OCC(=O)O)c(Cl)c2Cl)ccc1O ... 10 to 100 nM
Cc1c(F)c(OCC(=O)O)cc(Cl)c1Cc1ccc(O)c(C(C)C)c1F ... 10 to 100 nM

Q. # get_value(readout='EC50', item= `CCc1cc(OCC(=O)O)cc(C)c1Cc1ccc(O)c(C(C)C)c1F` )
A. 10 to 100 nM

Q. `CC(C)c1c(O)ccc(Cc2c(Cl)cc(OCC(=O)O)c(F)c2Cl)c1F` , same question.
A. 10 to 100 nM

Q. `C=C(C)c1c(F)c(OCC(=O)O)cc(Cl)c1Cc1ccc(O)c(C(C)C)c1F` , same question.
A. > 1000 nM
